Kindly supply the reported Microsomal Stability (rat) T1/2 values for the records listed here.
assay.details: Microsomal stability (rat)
Type: in vitro ADME
test.parameters: rat microsomes
Numbers only, in min.

N#Cc1ccc(-c2ccc3ncc4ccc(=O)n(-c5ccc(C(=O)N6CCOCC6)cc5)c4c3c2)cc1 ... 13.3

Recorded Microsomal Stability (rat) T1/2 (compound Cc1cc(C(=O)NC2CCN(CCO)CC2)ccc1-n1c(=O)ccc2cnc3ccc(-c4ccc(Cl)cc4)cc3c21 ): 15.8

---

assay.details: Solubility at pH 7.4
Type: physicochemical
Kindly supply the reported Sol @ pH 7.4 values for the records listed here.
Give bare numbers, in ug/mL.

Worked examples follow.
CN1CCN(CCCNC(=O)c2ccc(-n3c(=O)ccc4cnc5ccc(-c6ccc(Cl)cc6)cc5c43)cc2)CC1 [Compound 262] ... 0
Cc1cc(C(=O)NCCN2CCCCC2)ccc1-n1c(=O)ccc2cnc3ccc(-c4ccc(Cl)cc4)cc3c21 [Compound 291] ... 0
CC1CC1NC(=O)c1ccc(-n2c(=O)ccc3cnc4ccc(-c5ccc(N)nc5)cc4c32)cc1 (stereo not drawn) [Compound 338] ... 0.32
CCN(CC)CCNC(=O)c1ccc(-n2c(=O)ccc3cnc4ccc(-c5ccc(Cl)cc5)cc4c32)c(C)c1 [Compound 276] ... 34.8

Please state, for each entry, its recorded Sol @ pH 7.4.
1. CN(C)CCCNC(=O)c1ccc(-n2c(=O)ccc3cnc4ccc(-c5ccc(Cl)cc5)cc4c32)cc1 [Compound 258]
2. O=C(c1ccc(-n2c(=O)ccc3cnc4ccc(-c5ccc(Cl)cc5)cc4c32)cc1)N1CCNCC1 [Compound 103]

### Response
[0, 6.3]
